Source of measurements: patent US10532048B2

Molecular target: BB2 receptor (Homo sapiens (Human))
Sequence (P30550 whole entry): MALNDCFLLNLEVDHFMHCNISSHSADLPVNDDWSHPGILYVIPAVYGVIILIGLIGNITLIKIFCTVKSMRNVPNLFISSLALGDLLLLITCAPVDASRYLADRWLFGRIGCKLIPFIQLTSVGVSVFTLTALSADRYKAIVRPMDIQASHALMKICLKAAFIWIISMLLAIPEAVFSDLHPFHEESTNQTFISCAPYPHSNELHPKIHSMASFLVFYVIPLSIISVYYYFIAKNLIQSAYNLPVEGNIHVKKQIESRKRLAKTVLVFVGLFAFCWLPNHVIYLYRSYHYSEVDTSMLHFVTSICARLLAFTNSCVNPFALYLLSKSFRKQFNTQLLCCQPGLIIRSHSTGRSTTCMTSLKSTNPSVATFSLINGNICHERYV
READOUT: pIC50
Quick note: pIC50 values are minus log10 of concentrations in mol/L.

- TEST SMILES: "CS(=O)(=O)N[C@H]1CCCC[C@@H]1N1C(=O)c2ccccc2[C@@H](C(=O)NOCc2cccc(OCC(=O)O)c2)[C@@H]1c1ccc(Cl)cc1Cl"
  pIC50: 8.35
- TEST SMILES: "CS(=O)(=O)N[C@H]1CCCC[C@@H]1N1C(=O)c2ccccc2[C@@H](C(=O)NOCc2ccc(CC(=O)O)cc2)[C@@H]1c1ccc(Cl)cc1Cl"
  pIC50: 8.17
- TEST SMILES: "CS(=O)(=O)N[C@H]1CCCC[C@@H]1N1C(=O)c2ccccc2[C@@H](C(=O)NOCc2cc(C(=O)O)cs2)[C@@H]1c1ccc(Cl)cc1Cl"
  pIC50: 8.33
- TEST SMILES: "CS(=O)(=O)N[C@H]1CCCC[C@@H]1N1C(=O)c2ccccc2[C@@H](C(=O)NCCc2cccc(C(F)(F)C(=O)O)c2)[C@@H]1c1ccc(Cl)cc1Cl"
  pIC50: 8.17
- TEST SMILES: "CS(=O)(=O)N[C@H]1CCCC[C@@H]1N1C(=O)c2ccccc2[C@@H](C(=O)NCCc2ccc(CC(=O)O)cc2)[C@@H]1c1ccc(Cl)cc1Cl"
  pIC50: 8.13

Prompt: Could you tell me which pIC50 is on file for O=C(NCCc1ccccn1)[C@@H]1c2ccccc2C(=O)N([C@H](CO)Cc2ccccc2)[C@H]1c1ccc(Cl)cc1Cl ?
Completion: 7.89
